STUDY_SYSTEM: UniProt P49674
Sequence (P49674 whole entry): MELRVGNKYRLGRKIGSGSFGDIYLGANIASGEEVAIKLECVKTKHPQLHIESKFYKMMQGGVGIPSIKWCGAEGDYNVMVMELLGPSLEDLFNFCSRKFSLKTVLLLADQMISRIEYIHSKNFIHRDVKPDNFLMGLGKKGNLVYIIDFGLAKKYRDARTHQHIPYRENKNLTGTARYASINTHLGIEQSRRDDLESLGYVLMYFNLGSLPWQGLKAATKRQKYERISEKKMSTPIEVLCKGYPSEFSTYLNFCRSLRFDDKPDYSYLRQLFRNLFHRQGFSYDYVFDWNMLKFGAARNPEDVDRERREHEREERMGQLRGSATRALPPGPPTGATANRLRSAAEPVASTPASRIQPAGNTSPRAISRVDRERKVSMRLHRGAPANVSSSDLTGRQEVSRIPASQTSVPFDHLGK
EXPERIMENT_SUMMARY: CK1ε kinase assay (Caliper LABCHIP electrophoretic separation of fluoresceinated peptide substrate and product)
Format: biochemical
CONDITION_DETAILS: 200 pM CK1ε, 50 μM ATP, 1.5 μM peptide substrate, 22 hours at room temperature; read-out: CK1ε (IC50)

# MOLECULE, IC50
data = [
    ("N#Cc1ccc(NC(=O)N2Cc3c(C(N)=O)c(-c4ccc(F)c(Cl)c4)nn3C(C(=O)NC3CCOCC3)C2)cc1 (single isomer, unassigned) [Compound A28]", "10 to 100 nM"),
    ("Cc1cc(Cl)cc(-c2nn3c(c2C(N)=O)CN(C(=O)Nc2ccc(C#N)c(Cl)c2)CC3)c1", "0.01 to 10 nM"),
    ("N#Cc1ccc(NC(=O)N2Cc3c(C(N)=O)c(-c4cccc(F)c4)nn3C3(CC3)C2)cc1", "0.01 to 10 nM"),
    ("CSc1cccc(-c2nn3c(c2C(N)=O)CN(C(=O)Nc2ccc(C#N)cc2)CC3)c1", "0.01 to 10 nM"),
    ("N#Cc1ccc(NC(=O)N2Cc3c(C(N)=O)c(-c4ccc(F)c(Cl)c4)nn3C(C(=O)NC3CCOCC3)C2)cc1 (single isomer, unassigned) [Compound A29]", "10 to 100 nM"),
    ("N#Cc1ccc(NC(=O)N2CCn3nc(-c4ccc(Cl)c(Cl)c4)c(C(N)=O)c3C2)cc1C(F)(F)F", "0.01 to 10 nM"),
    ("N#Cc1ccc(NC(=O)N2Cc3c(C(N)=O)c(-c4ccc(F)c(Cl)c4)nn3CC2C(F)(F)F)cc1 (single isomer, unassigned) [Compound 335]", "100 to 2000 nM"),
    ("N#Cc1ccc(NC(=O)N2CCn3nc(-c4ccc(F)c(Cl)c4)c(C(=O)NC4CC4)c3C2)cc1", "100 to 2000 nM"),
    ("NC(=O)c1c(-c2cccc(Cl)c2)nn2c1CN(C(=O)Nc1cc(F)cc(F)c1)CC2", "0.01 to 10 nM"),
    ("N#Cc1ccc(NC(=O)N2Cc3c(C(N)=O)c(-c4ccc(Cl)c(Cl)c4)nn3[C@H]3COC[C@H]32)cc1", "0.01 to 10 nM"),
    ("NC(=O)c1c(-c2ccc(F)c(Cl)c2)nn2c1CN(C(=O)Nc1cc(F)c(F)c(F)c1)CC2", "0.01 to 10 nM"),
    ("CN(C)c1cc(Cl)cc(-c2nn3c(c2C(N)=O)CN(C(=O)Nc2ccc(C#N)c(C(F)(F)F)c2)CC3)c1", "0.01 to 10 nM"),
    ("CS(=O)(=O)c1cccc(-c2nn3c(c2C(N)=O)CN(C(=O)Nc2ccc(C#N)cc2)CC3)c1", "100 to 2000 nM"),
    ("CC1CN(C(N)=O)Cc2c(C(=O)NC(C)(C)C)c(-c3ccc(Cl)c(Cl)c3)nn21 (centres unmarked)", "0.01 to 10 nM"),
]
